system: MC5-R (Homo sapiens, UniProt P33032)
Sequence (P33032 whole entry): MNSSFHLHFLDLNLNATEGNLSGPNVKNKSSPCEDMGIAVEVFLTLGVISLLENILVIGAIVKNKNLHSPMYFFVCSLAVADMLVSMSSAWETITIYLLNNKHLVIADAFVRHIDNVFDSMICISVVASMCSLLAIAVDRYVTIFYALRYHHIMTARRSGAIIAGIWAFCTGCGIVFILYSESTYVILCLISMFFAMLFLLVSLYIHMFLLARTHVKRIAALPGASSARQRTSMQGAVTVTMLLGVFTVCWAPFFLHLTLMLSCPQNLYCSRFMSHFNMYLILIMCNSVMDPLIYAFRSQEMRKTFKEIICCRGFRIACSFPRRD
method-description: Competitive inhibition binding assay, 125I-NDP-α-MSH, MC5-R
Design: expressed in transfected cells
experimental-conditions: 1 μM compound; inhibition of 125I-NDP-α-MSH binding; mean of triplicates; results less than 0% reported as 0%
Non-standard residues stand in square brackets, D forms with d. Residues, ends and D or L forms follow the SMILES beside them. *: point of attachment. Hyp = O=C(O)[C@@H]1C[C@@H](O)CN1; Nle = CCCC[C@H](N)C(=O)O; NH(CH2)3NH2 = NCCCN*; Bn = c1ccc(C*)cc1
quantity-name: Inhibition at 1 μM MC5-R (%)
Express the result in % but write the number alone.

Q: Looking for the measured Inhibition at 1 μM MC5-R of NCCCC[C@H]1C(=O)N2C(CC[C@@H]2COc2ccc3ccccc3c2)N1C(=O)[C@@H](Cc1ccccc1Cl)NC(=O)C1(N)CCc2ccccc21 (some centres unmarked) [Example 96] , can you help?
Ans: 17

Q: Looking for the measured Inhibition at 1 μM MC5-R of Cc1ccc(CCN2CCN(C(=O)[C@H](N)Cc3ccc(Cl)cc3)[C@@H](CCCNC(=N)N)C2=O)cc1 [Example 127] , can you help?
Ans: 17

Q: Looking for the measured Inhibition at 1 μM MC5-R of CCCC[C@H](NC(C)=O)C(=O)N[C@@H](C)C(=O)N[C@@H](Cc1cnc[nH]1)C(=O)N[C@H](Cc1ccccc1)C(=O)N1C[C@H](OCc2ccccc2)C[C@H]1C(=O)NCCCN [Example 133] (Ac-[Nle]AH[dF][Hyp](Bn)-{NH(CH2)3NH2}) , can you help?
Ans: 25

Q: Looking for the measured Inhibition at 1 μM MC5-R of N[C@H](Cc1ccc(Cl)cc1Cl)C(=O)N1CCN(CCc2ccc3ccccc3c2)C(=O)[C@@H]1CCCCNC(=O)c1ccc(O)cc1 [Example 61] , can you help?
Ans: 26

Q: Looking for the measured Inhibition at 1 μM MC5-R of CCCCCCC(=O)N[C@@H](COCc1ccccc1)C(=O)N[C@H](Cc1ccccc1Cl)C(=O)N1CCN(CCc2c[nH]c3ccccc23)C(=O)[C@@H]1CCCCN [Example 11] , can you help?
Ans: 82

Taken from patent US7807678B2.
